Task for the reader: assign each of the following binders its reported kon.
Molecular target: SARS-CoV-2 Spike (S) protein, wild type (SARS-CoV-2, UniProt P0DTC2 14-1208)
Test: HT-SPR Carterra LSA; mAb coupled to chip, Spike in solution; 1:1 Langmuir fit
Please state the figure in M⁻¹ s⁻¹; there is no need to write the unit.

Record request: kon value, item anti-SARS-CoV-2 antibody 1075 (antibody, V domains shown) VH: QVQLVQSGAEVKKPGASVKVSCKVSGYTLIELSMHWVRQAPGKGLEWMGGFDPEDGETIYAQKFQGRVTMTEDTSTDTAYMELSSLRSEDTAVYYCATEWAYYGSGSYLGYWGQGTLVTVSS VL: EIVMTQSPATLSVSPGERATLSCRASQSVSSNLAWFQQKPGQAPRLLIYGASTRVTVIPARFSGSGSGTEFTLTISSLQSEDFAVYYCQQYNNWPRTFGQGTKVEIKR
227000

Record request: kon value, item anti-SARS-CoV-2 antibody 1149 (antibody, V domains shown) VH: QVQLVQSGAEVKKPGASVKVSCKASGYTFASYDINWVRQATGQGPEWMGWMIPNIGNTGYAQKFQGRVTMTRNTSISTAYMELSSLTSEDTAVYYCARVSRLFNDFGLRHEAPVDFWGQGTRVTVSS VL: QSVLTQPPSVSGAPGQRVTISCTGSSSNIGAGYDVHWYQQLPGTAPKLLIYGYSSRPSGVPDRFSGSKSGTSASLAITGLQAEDEADYYCQSYDSSLSVLFGGGTKLTVLG
664000

Record request: kon value, item anti-SARS-CoV-2 antibody 1037 (antibody, V domains shown) VH: QITLKESGPTLVKPTQTLTLTCTFSGFSLSTSGVGVGWIRQPPGKALEWLALIYWDDDKRYSPSLKSRLTITKDTSKNQVVLTMTNMDPVDTATYYCAHHTITRINDYWGQGTLVTVSS VL: QSALTQPASVSGSPGQSITISCTATSSDVGAYNYVSWYQQHPGKAPKLMIYDVSKRPSGVSNRFSGSKSGNTASLTISGLQAEDEADYYCSSYTSSSTVFGGGTKLTVLG
443000
